This collection of values is drawn from the supplement of paper PMC10065799.

# Test system: Fer (mouse)
# EXPERIMENT NOTES: phosphorylation enrichment, bacterial display (enrichment ratio); higher = better substrate or ligand; peptides without Tyr show the background
# label = Y if phosphorylation enrichment >= 0.8 else N

[[record]]
sequence_chain = "EPNSRYTCKLE [USH2A_Y3745_Y3747C]"
category_label = "N"

[[record]]
sequence_chain = "WHHTFYNELRV [ACTA1_Y93]"
category_label = "N"

[[record]]
sequence_chain = "WHHTFYNELCV [ACTC1_Y93_R97C]"
category_label = "Y"

[[record]]
sequence_chain = "EFITRYIASLK [PSMA7_Y110_YF]"
category_label = "N"

[[record]]
sequence_chain = "SEPDLYFDPRG [PKP1_Y160_C161Y_YF]"
category_label = "Y"

[[record]]
sequence_chain = "LHQSTYQRFDV [SLC7A14_Y693_YF]"
category_label = "Y"

[[record]]
sequence_chain = "NPQKSYFIRLY [WAS_Y83]"
category_label = "N"

[[record]]
sequence_chain = "ANVKWYRNGRE"
category_label = "N"


Test whether the sequence DLLNSYTENEG [HSPA4L_Y600_I601T] records phosphorylation enrichment of 0.8 or higher. N

Test whether the sequence GEHSIYCTVNN [CD55_Y266] records phosphorylation enrichment of 0.8 or higher. Y

Test whether the sequence LKVQVYILGRE [ASS1_Y359_G356V] records phosphorylation enrichment of 0.8 or higher. Y

Test whether the sequence MRTMGYMPTEM [CABP5_Y62] records phosphorylation enrichment of 0.8 or higher. N

Test whether the sequence TLARLYHPDST [LRIG1_Y1029] records phosphorylation enrichment of 0.8 or higher. N

Test whether the sequence MIRSAYALRGL [CPS1_Y590_G593R] records phosphorylation enrichment of 0.8 or higher. N

Test whether the sequence CLLHCYFSQIH [MCM3AP_Y873_R878H] records phosphorylation enrichment of 0.8 or higher. N

Test whether the sequence PQDSAYHSGIQ [FLG_Y3940_S3935P] records phosphorylation enrichment of 0.8 or higher. N

###

# TARGET OR SYSTEM: MERTK (UniProt Q12866)
# Sequence (Q12866 whole entry, looked up): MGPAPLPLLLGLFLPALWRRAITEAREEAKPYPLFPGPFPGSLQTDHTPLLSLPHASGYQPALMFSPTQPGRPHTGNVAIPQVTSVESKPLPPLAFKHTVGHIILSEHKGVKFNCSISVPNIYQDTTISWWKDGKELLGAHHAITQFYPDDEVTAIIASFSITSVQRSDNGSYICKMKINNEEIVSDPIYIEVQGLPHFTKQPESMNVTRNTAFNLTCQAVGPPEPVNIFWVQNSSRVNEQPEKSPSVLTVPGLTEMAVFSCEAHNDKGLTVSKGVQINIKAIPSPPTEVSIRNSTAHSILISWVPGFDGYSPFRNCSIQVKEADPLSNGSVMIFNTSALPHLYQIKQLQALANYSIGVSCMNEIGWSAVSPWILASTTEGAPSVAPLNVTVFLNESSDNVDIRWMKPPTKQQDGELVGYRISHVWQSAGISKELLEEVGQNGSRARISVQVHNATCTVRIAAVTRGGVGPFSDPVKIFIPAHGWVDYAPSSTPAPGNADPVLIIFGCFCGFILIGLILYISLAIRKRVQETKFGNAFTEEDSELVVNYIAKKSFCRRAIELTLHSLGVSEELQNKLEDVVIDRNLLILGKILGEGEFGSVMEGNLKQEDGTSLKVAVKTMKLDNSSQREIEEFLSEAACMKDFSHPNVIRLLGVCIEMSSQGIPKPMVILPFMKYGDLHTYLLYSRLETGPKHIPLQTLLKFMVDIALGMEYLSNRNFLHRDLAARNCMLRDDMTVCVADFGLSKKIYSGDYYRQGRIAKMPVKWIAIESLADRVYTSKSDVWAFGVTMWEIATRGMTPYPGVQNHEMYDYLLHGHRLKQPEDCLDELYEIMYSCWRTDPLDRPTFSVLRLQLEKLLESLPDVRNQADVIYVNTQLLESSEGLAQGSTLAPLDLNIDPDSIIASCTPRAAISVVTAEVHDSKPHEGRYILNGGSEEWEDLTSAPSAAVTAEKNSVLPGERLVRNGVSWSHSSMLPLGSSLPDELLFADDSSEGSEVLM
# EXPERIMENT NOTES: phosphorylation enrichment, bacterial display (enrichment ratio); higher = better substrate or ligand; peptides without Tyr show the background
# label = YES if phosphorylation enrichment >= 0.5 else NO

Sample answers from the record:
[[record]]
sequence_chain = "NHRNQYQALKP [CLSPN_Y887]"
category_label = "YES"

[[record]]
sequence_chain = "VDHFGYTKDDK [APOB_Y740]"
category_label = "NO"


Test whether the sequence DDKEYYSVHNK [MET_Y1235_Y1230D] records phosphorylation enrichment of 0.5 or higher. NO

###

Recorded phosphorylation enrichment by entry
# TARGET OR SYSTEM: FGFR1 (UniProt P11362)
# Sequence (P11362 whole entry, looked up): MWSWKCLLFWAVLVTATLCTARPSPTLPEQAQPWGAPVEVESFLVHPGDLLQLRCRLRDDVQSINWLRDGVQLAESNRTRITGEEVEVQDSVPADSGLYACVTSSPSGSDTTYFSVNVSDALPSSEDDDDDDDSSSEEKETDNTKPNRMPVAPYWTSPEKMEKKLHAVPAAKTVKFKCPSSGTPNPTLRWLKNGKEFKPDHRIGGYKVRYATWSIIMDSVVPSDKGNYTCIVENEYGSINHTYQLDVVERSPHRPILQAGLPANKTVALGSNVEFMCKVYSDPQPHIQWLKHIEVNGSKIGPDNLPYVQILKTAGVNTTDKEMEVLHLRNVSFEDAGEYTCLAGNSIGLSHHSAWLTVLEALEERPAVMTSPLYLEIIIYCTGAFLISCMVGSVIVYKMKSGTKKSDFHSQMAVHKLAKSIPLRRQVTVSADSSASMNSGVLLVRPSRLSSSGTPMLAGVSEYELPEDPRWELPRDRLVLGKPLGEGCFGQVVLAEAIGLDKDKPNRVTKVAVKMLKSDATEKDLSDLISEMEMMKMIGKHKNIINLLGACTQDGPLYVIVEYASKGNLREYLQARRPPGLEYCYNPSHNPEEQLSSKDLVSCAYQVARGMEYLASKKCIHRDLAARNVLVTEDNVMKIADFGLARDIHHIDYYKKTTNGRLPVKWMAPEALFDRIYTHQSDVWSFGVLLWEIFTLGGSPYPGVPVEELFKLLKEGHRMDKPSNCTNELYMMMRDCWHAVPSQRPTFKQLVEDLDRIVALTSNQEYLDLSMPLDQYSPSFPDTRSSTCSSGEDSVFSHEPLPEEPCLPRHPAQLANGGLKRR
# EXPERIMENT NOTES: phosphorylation enrichment, bacterial display (enrichment ratio); higher = better substrate or ligand; peptides without Tyr show the background
Please give only the number in your answer, with no unit.

[[record]]
sequence_chain = "SVNIRYLLFPS [SERAC1_Y548]"
recorded_result = 0.574

[[record]]
sequence_chain = "REVPVYTFSEP [FAM120B_Y368_D370Y_YF]"
recorded_result = 1.14

[[record]]
sequence_chain = "LKVQVYILGRE [ASS1_Y359_G356V]"
recorded_result = 1.34

[[record]]
sequence_chain = "RKELFYKADGE [SERPINC1_Y272]"
recorded_result = 0.713

[[record]]
sequence_chain = "IINENYDYLKG [NUP98_Y1664]"
recorded_result = 0.535

[[record]]
sequence_chain = "VDSNPYSRLVA [UBA5_Y53_M57V]"
recorded_result = 0.465

[[record]]
sequence_chain = "AAVNGYAFGGG [ECHS1_Y137]"
recorded_result = 0.435

[[record]]
sequence_chain = "KVDKEYEVHVR [GHR_Y226_R229H]"
recorded_result = 0.474

[[record]]
sequence_chain = "QPDFLYDHIQP [TRRAP_Y862]"
recorded_result = 0.622

[[record]]
sequence_chain = "TLQSMSGCDVG [HLA-B_Y123_Y123S]"
recorded_result = 0.48


Write phosphorylation enrichment of GGEEFYVHFVG [KAT8_Y90_R86G_YF] ; system used: FGFR1 (UniProt P11362) 0.648

Write phosphorylation enrichment of QKFMAYLSQGW [HLCS_Y236_G241W] ; system used: FGFR1 (UniProt P11362) 0.668

Write phosphorylation enrichment of DHAGTYGLGDR [MAPT_Y18] ; system used: FGFR1 (UniProt P11362) 0.406

Write phosphorylation enrichment of EGTATYAAAIL [JUP_Y644_V648I] ; system used: FGFR1 (UniProt P11362) 0.476

Write phosphorylation enrichment of QCTSDYPEHVC [SART3_Y541] ; system used: FGFR1 (UniProt P11362) 0.929

Write phosphorylation enrichment of HLPAGYIIPLQ [GAA_Y822_R819P] ; system used: FGFR1 (UniProt P11362) 0.443

Write phosphorylation enrichment of RLTEGYTGPFK [ZNF862_Y181_I178T] ; system used: FGFR1 (UniProt P11362) 0.364

###

# TARGET OR SYSTEM: c-Src SH2
# EXPERIMENT NOTES: SH2 binding enrichment of the phosphorylated peptide, bacterial display (enrichment ratio); higher = better substrate or ligand; peptides without Tyr show the background
Recorded SH2 binding enrichment by entry
Please give only the number in your answer, with no unit.

[[record]]
sequence_chain = "QSMEPYTKQQL [STAT3_Y640_V637M]"
recorded_result = 0.499


Switching to the query record.
Give the value of SH2 binding enrichment reported for the following: HTKKNYGNSSV [HDX_Y197_A193T] 0.532

###

Recorded SH2 binding enrichment by entry
# TARGET OR SYSTEM: c-Src SH2;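 further: peptide library displayed on the E. coli surface as eCPX fusions, selected cells deep-sequenced, score is each peptide's frequency after selection divided by its frequency in the input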
# EXPERIMENT NOTES: SH2 binding enrichment of the phosphorylated peptide, bacterial display (enrichment ratio); higher = better substrate or ligand; peptides without Tyr show the background
Please give only the number in your answer, with no unit.

Below, each entry is followed by its recorded SH2 binding enrichment result.
[[record]]
sequence_chain = "EESREYDRLFE [PIK3R1_Y463_K459E_YF]"
readout_type = "SH2 binding enrichment"
recorded_result = 6.69

[[record]]
sequence_chain = "GGFSRYDEGSG [RECQL5_Y484_D480G]"
readout_type = "SH2 binding enrichment"
recorded_result = 0.459


Write SH2 binding enrichment of MIHSAYALGGL [CPS1_Y590_R587H] ; system used: c-Src SH2 0.716

Write SH2 binding enrichment of `LANNEYYFQVC` ; system used: c-Src SH2 0.431

Write SH2 binding enrichment of RLEPVYFVAPA [LAMC2_Y250_D247E] ; system used: c-Src SH2 0.625

Write SH2 binding enrichment of ILTYKYLQKPM [KIT_Y547] ; system used: c-Src SH2 0.428

Write SH2 binding enrichment of PSDLLYILDIQ [ITGA2B_Y845] ; system used: c-Src SH2 0.571

Write SH2 binding enrichment of PLRPDYQEPSR [DDR2_Y481] ; system used: c-Src SH2 0.786

Write SH2 binding enrichment of KRLAVYIDEEA [EPM2A_Y304_P301L] ; system used: c-Src SH2 0.507

###

# TARGET OR SYSTEM: Hck (UniProt P08631)
# Sequence (P08631 whole entry, looked up): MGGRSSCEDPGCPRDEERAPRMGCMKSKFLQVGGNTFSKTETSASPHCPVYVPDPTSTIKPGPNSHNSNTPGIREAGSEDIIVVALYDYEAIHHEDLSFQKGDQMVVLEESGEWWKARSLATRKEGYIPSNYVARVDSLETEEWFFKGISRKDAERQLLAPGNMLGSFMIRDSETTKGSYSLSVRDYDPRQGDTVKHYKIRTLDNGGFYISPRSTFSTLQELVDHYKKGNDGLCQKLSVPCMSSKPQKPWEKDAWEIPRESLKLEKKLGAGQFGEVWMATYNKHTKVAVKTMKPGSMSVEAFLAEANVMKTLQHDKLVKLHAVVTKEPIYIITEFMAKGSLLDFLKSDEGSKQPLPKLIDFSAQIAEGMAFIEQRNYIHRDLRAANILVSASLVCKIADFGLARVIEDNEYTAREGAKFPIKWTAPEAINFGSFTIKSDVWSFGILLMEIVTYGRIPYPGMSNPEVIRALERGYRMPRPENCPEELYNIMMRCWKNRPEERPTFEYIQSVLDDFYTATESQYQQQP
# EXPERIMENT NOTES: phosphorylation enrichment, bacterial display (enrichment ratio); higher = better substrate or ligand; peptides without Tyr show the background
READOUT TYPE: phosphorylation enrichment
Please give only the number in your answer, with no unit.

[[record]]
sequence_chain = "QMVGMYASSYM [AVPR2_Y124]"
target_or_system = "Hck (UniProt P08631)"
recorded_result = 1.3

[[record]]
sequence_chain = "RVILRYVNPGT [LAMA3_Y791]"
target_or_system = "Hck (UniProt P08631)"
recorded_result = 0.561

[[record]]
sequence_chain = "ILTYKYLQKPM [KIT_Y547]"
target_or_system = "Hck (UniProt P08631)"
recorded_result = 0.458

[[record]]
sequence_chain = "FAELMYTGFWH [ASS1_Y322_V321M]"
target_or_system = "Hck (UniProt P08631)"
recorded_result = 4.7


Write phosphorylation enrichment of GLDGSYLLTDS [SH2D1A_Y29_R32T] ; system used: Hck (UniProt P08631) 0.435

Write phosphorylation enrichment of QCTSDYPEHVC [SART3_Y541] ; system used: Hck (UniProt P08631) 0.831

###

# TARGET OR SYSTEM: Fyn (UniProt P06241)
# Sequence (P06241 whole entry, looked up): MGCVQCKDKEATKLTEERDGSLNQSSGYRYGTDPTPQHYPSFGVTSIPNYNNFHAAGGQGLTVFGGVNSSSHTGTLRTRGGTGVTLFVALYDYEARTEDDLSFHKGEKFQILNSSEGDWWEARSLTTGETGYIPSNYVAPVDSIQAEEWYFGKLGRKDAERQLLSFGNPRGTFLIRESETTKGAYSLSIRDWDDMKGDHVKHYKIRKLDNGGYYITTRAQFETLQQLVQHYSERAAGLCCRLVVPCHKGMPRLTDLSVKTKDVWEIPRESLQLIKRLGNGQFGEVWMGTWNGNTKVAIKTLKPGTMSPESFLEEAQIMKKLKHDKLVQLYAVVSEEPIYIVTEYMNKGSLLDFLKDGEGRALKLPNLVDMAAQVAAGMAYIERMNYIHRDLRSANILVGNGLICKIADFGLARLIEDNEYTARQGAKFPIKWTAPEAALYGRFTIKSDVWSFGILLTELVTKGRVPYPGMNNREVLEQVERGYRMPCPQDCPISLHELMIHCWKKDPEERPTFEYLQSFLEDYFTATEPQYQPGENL
# EXPERIMENT NOTES: phosphorylation enrichment, bacterial display (enrichment ratio); higher = better substrate or ligand; peptides without Tyr show the background
READOUT TYPE: phosphorylation enrichment
Please give only the number in your answer, with no unit.

Below, each entry is followed by its recorded phosphorylation enrichment result.
[[record]]
sequence_chain = "ESKKHYGFSLF [ANXA3_Y295_F291S_YF]"
recorded_result = 0.513

[[record]]
sequence_chain = "AAALAYGLDKS [HSPA9_Y230]"
recorded_result = 0.388


Give the value of phosphorylation enrichment reported for the following: LHQSTYQRFDV [SLC7A14_Y693_YF] 1.83

Give the value of phosphorylation enrichment reported for the following: DDKEYYSVHNK [MET_Y1235_Y1230D] 0.529

Give the value of phosphorylation enrichment reported for the following: NAMRRYIEEFQ [MNS1_Y244] 0.371

Give the value of phosphorylation enrichment reported for the following: SRDDYYETIAM [NPY1R_Y347_D346Y] 0.798

Give the value of phosphorylation enrichment reported for the following: EDAHHYLCKEV [JAK2_Y382_A377E] 0.542
